biological target: CLDN18.2 expressed in mouse healthy stomach tissue (mouse) (UniProt P56857); test: flow cytometry, live cells from healthy mouse stomach, antibody 4 µg/ml
Entries and their measured % of positive healthy stomach cells (Average) follow.
A number alone suffices; assume %.

Use these answered entries as a reference point.
hCl1c (antibody, human IgG1, kappa, V domains shown) VH: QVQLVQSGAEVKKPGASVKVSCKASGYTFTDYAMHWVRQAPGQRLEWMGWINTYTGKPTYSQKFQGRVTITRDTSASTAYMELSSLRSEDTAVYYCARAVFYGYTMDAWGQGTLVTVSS VL: DIQMTQSPSSLSASVGDRVTITCRTSEDIYSNLAWYQQKPGKAPKLLIFAIKRLQDGVPSRFSGSGSGTDFTLTISSLQPEDFATYYCLQGSKFPLTFGQGTKVEIKR :: 0.25
hCl1a (antibody, human IgG1, kappa, V domains shown) VH: QVQLVQSGAEVKKPGASVKVSCKASGYTFTDYAMHWVRQAPGQRLEWMGWINTYTGKPTYAQKFQGRVTITRDTSASTAYMELSSLRSEDTAVYYCARAVFYGYTMDAWGQGTLVTVSS VL: DIQMTQSPSSLSASVGDRVTITCRASEDIYSNLAWYQQKPGKAPKLLIFSVKRLQDGVPSRFSGSGSGTDFTLTISSLQPEDFATYYCLQGSNFPLTFGQGTKVEIKR :: 0.75
cCl1-1 (antibody, V domains shown) VH: QIQLVQSGPELKKPGESVKISCKASGYTFTDYAMHWVKQAPGKGLKWMGWINTYTGKPTYADDFKGRFVFSLEASASTANLQISNLKNEDTATYFCARAVFYGYTMDAWGQGTSVTVSS VL: DIQMTQSPASLSASLGETISIACRASEDIYSNLAWYQQKSGKSPQLLIFSVKRLQDGVPSRFSGSGSGTQYSLKISGMQPEDEGDYFCLQGSNFPLTFGSGTKLEIK :: 0.35
hCl1b (antibody, human IgG1, kappa, V domains shown) VH: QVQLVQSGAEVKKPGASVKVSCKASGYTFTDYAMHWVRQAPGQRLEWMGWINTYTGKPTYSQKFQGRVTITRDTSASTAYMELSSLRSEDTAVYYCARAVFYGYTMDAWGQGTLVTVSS VL: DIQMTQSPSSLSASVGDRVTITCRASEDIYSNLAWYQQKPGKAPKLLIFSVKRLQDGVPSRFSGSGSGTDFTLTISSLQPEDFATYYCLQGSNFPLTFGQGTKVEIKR :: 0.565

Exam item: Given the binder hCl1f (antibody, human IgG1, kappa, V domains shown) VH: QVQLVQSGAEVKKPGASVKVSCKASGYTFTDYAMHWVRQAPGQRLEWMGWINAYTGKPTYAQKFQGRVTITRDTSASTAYMELSSLRSEDTAVYYCARAVFYGYTMDAWGQGTLVTVSS VL: DIQMTQSPSSLSASVGDRVTITCRASEDIYSNLAWYQQKPGKAPKLLIYSVKRLQDGVPSRFSGSGSGTDFTLTISSLQPEDFATYYCLQGSNFPLTFGQGTKVEIKR , what is its reported % of positive healthy stomach cells (Average)?
Marked response: 0.07
